These data points were gathered from patent US12559474B2.

- subject_of_test: SARS-CoV-2 3CL protease (Severe acute respiratory syndrome coronavirus 2)
- run_description: biochemical
- test_settings: 50% SARS-CoV-2 3CL protease inhibitory concentration, given as class symbols; read-out: IC50
observation_type: IC50

Exercise: Consider the compound Cn1cc2cc(Nc3nc(=O)n(-c4cnc5ccccn45)c(=O)n3Cc3cc(F)c(F)c(F)c3)c(Cl)cc2n1 [II-0391] tested on SARS-CoV-2 3CL protease (Severe acute respiratory syndrome coronavirus 2); state its IC50.
Key: < 100 nM

Exercise: Consider the compound Cc1cncc(-n2c(=O)nc(Nc3cc4cn(C)nc4cc3Cl)n(Cc3cc(Br)cc(C#N)c3)c2=O)c1 [II-0210] tested on SARS-CoV-2 3CL protease (Severe acute respiratory syndrome coronavirus 2); state its IC50.
Key: < 100 nM

Exercise: Consider the compound Cn1cc2cc(Nc3nc(=O)n(-c4cncc5ccccc45)c(=O)n3Cc3cc(F)c(F)c(C#N)c3)ccc2n1 [II-0154] tested on SARS-CoV-2 3CL protease (Severe acute respiratory syndrome coronavirus 2); state its IC50.
Key: < 100 nM

Exercise: Consider the compound CNc1nc2cc(Cl)c(Nc3nc(=O)n(-c4cncc(C)c4)c(=O)n3Cc3cc(C#N)c(F)cn3)cc2s1 [II-0534] tested on SARS-CoV-2 3CL protease (Severe acute respiratory syndrome coronavirus 2); state its IC50.
Key: < 100 nM

Exercise: Consider the compound Cc1c2cc(Nc3nc(=O)n(Cc4ncn(C)n4)c(=O)n3Cc3cc(Cl)c(F)cc3F)c(Cl)cc2nn1C [II-0437] tested on SARS-CoV-2 3CL protease (Severe acute respiratory syndrome coronavirus 2); state its IC50.
Key: < 100 nM

Exercise: Consider the compound O=c1[nH]cccc1Cn1c(=O)nc(Nc2cc3cn(CCN4CCOCC4)nc3cc2Cl)n(Cc2cc(F)c(F)c(F)c2)c1=O [Compound I-0249] tested on SARS-CoV-2 3CL protease (Severe acute respiratory syndrome coronavirus 2); state its IC50.
Key: < 100 nM

Exercise: Consider the compound Cc1cncc(-n2c(=O)nc(Nc3cc4cn(C)nc4cc3Cl)n(Cc3ccc(F)c(F)c3F)c2=O)c1 [II-0175] tested on SARS-CoV-2 3CL protease (Severe acute respiratory syndrome coronavirus 2); state its IC50.
Key: < 100 nM

---

Please respond with reported IC50 for every item in the list.
- subject_of_test: SARS-CoV-2 3CL protease (Severe acute respiratory syndrome coronavirus 2)
- run_description: biochemical
- test_settings: IC50

Exercise: Read the entry `Cc1cncc(-n2c(=O)nc(Nc3ccc(N=S(C)(C)=O)cc3C)n(Cc3cc(Cl)ccc3C)c2=O)c1` and write its reported IC50.
Key: < 100 nM

Exercise: Read the entry `CC(=O)NCCn1cc2cc(Nc3nc(=O)n(Cc4ccc[nH]c4=O)c(=O)n3Cc3cc(F)c(F)c(F)c3)c(Cl)cc2n1` and write its reported IC50.
Key: < 100 nM

Exercise: Read the entry `CNC(=O)c1c[nH]c(=O)c(Cn2c(=O)nc(Nc3cc4c(cc3Cl)OCC4)n(Cc3cc(F)c(F)c(F)c3)c2=O)c1` and write its reported IC50.
Key: < 100 nM

Exercise: Read the entry `Cn1cnc(Cn2c(=O)nc(NC34CC(Nc5ncc(C(F)(F)F)cn5)(C3)C4)n(Cc3cc(F)c(F)c(F)c3)c2=O)n1` and write its reported IC50.
Key: < 100 nM

Exercise: Read the entry `Cn1cnc(Cn2c(=O)nc(NC34CC(Nc5ncc6ccccc6n5)(C3)C4)n(Cc3cc(F)c(F)c(F)c3)c2=O)n1` and write its reported IC50.
Key: < 100 nM

Exercise: Read the entry `COc1ccc(Nc2nc(=O)n(Cc3ccc[nH]c3=O)c(=O)n2Cc2cc(F)cc(C#N)c2)cc1` and write its reported IC50.
Key: < 100 nM

Exercise: Read the entry `CNC(=O)c1cnc2[nH]c(=O)c(Cn3c(=O)nc(Nc4ccc5c(c4)CCO5)n(Cc4cc(F)c(F)c(F)c4)c3=O)cc2c1` and write its reported IC50.
Key: < 100 nM

---

- subject_of_test: SARS-CoV-2 3CL protease (Severe acute respiratory syndrome coronavirus 2)
- run_description: biochemical
- test_settings: IC50
pIC50: −log10 of the molar value.
observation_type: pIC50

Exercise: Consider the compound `O=C(O)COc1ccc(Nc2nc(=O)n(Cc3ccc[nH]c3=O)c(=O)n2Cc2cc(F)c(F)c(F)c2)c(Cl)c1` tested on SARS-CoV-2 3CL protease (Severe acute respiratory syndrome coronavirus 2); state its pIC50.
Key: > 7.00

Exercise: Consider the compound `Cn1cnc(Cn2c(=O)nc(Nc3cc4cn(CCN)nc4cc3Cl)n(Cc3cc(Cl)c(F)cc3F)c2=O)n1` tested on SARS-CoV-2 3CL protease (Severe acute respiratory syndrome coronavirus 2); state its pIC50.
Key: > 7.00

Exercise: Consider the compound Cc1c[nH]nc1[C@@H]1C[C@H]1Nc1nc(=O)n(Cc2ccc[nH]c2=O)c(=O)n1Cc1cc(F)c(F)c(F)c1 (racemic) tested on SARS-CoV-2 3CL protease (Severe acute respiratory syndrome coronavirus 2); state its pIC50.
Key: 6.37

Exercise: Consider the compound `CNC(=O)Cn1cc2cc(Nc3nc(=O)n(Cc4ncn(C)n4)c(=O)n3Cc3cc(Cl)c(F)cc3F)c(Cl)cc2n1` tested on SARS-CoV-2 3CL protease (Severe acute respiratory syndrome coronavirus 2); state its pIC50.
Key: > 7.00

Exercise: Consider the compound `CC(=O)Nc1nc2cc(F)c(Nc3nc(=O)n(Cc4ncn(C)n4)c(=O)n3Cc3cc(F)c(F)c(Cl)c3)cc2s1` tested on SARS-CoV-2 3CL protease (Severe acute respiratory syndrome coronavirus 2); state its pIC50.
Key: > 7.00

Exercise: Consider the compound `CN(C)C(=O)Cn1cc2cc(Nc3nc(=O)n(Cc4ncn(C)n4)c(=O)n3Cc3cc(F)c(F)c(Cl)c3)c(Cl)cc2n1` tested on SARS-CoV-2 3CL protease (Severe acute respiratory syndrome coronavirus 2); state its pIC50.
Key: > 7.00

Exercise: Consider the compound `Cc1cncc(-n2c(=O)nc(Nc3ccc(N=S4(=O)CCCC4)c(Cl)c3Cl)n(Cc3cc(Cl)ccc3C)c2=O)c1` tested on SARS-CoV-2 3CL protease (Severe acute respiratory syndrome coronavirus 2); state its pIC50.
Key: > 7.00

Exercise: Consider the compound `Cc1cncc(-n2c(=O)nc(Nc3cc4sc(NS(C)(=O)=O)nc4cc3Cl)n(Cc3ccc(F)c(C#N)c3)c2=O)c1` tested on SARS-CoV-2 3CL protease (Severe acute respiratory syndrome coronavirus 2); state its pIC50.
Key: > 7.00

Exercise: Consider the compound `Cc1cncc(-n2c(=O)nc(Nc3cc(Cl)c(N=S4(=O)CCCC4)cc3Cl)n(Cc3cc(Cl)ccc3C)c2=O)c1` tested on SARS-CoV-2 3CL protease (Severe acute respiratory syndrome coronavirus 2); state its pIC50.
Key: > 7.00

Exercise: Consider the compound `Cn1cnc(Cn2c(=O)nc(Nc3cc4cn(CCS(C)(=O)=O)nc4cc3Cl)n(Cc3cc(Cl)c(F)cc3F)c2=O)n1` tested on SARS-CoV-2 3CL protease (Severe acute respiratory syndrome coronavirus 2); state its pIC50.
Key: > 7.00

Exercise: Consider the compound `CC(=O)Nc1nc2ccc(Nc3nc(=O)n(-c4cncc5ccccc45)c(=O)n3Cc3ccc(F)c(C#N)c3)cc2s1` tested on SARS-CoV-2 3CL protease (Severe acute respiratory syndrome coronavirus 2); state its pIC50.
Key: > 7.00

Exercise: Consider the compound `O=c1[nH]cccc1Cn1c(=O)nc(Nc2ccc(F)cc2Cl)n(Cc2cc(F)c(F)c(F)c2)c1=O` tested on SARS-CoV-2 3CL protease (Severe acute respiratory syndrome coronavirus 2); state its pIC50.
Key: 6.00 to 7.00

Exercise: Consider the compound `Cc1ccc(Cl)cc1Cn1c(NC23CC(Nc4ncccn4)(C2)C3)nc(=O)n(Cc2ccncc2C)c1=O` tested on SARS-CoV-2 3CL protease (Severe acute respiratory syndrome coronavirus 2); state its pIC50.
Key: > 7.00

Exercise: Consider the compound `CNC(=O)Cn1c(=O)nc(Nc2cc3sc(C)nc3cc2C)n(Cc2cc(F)c(F)c(F)c2)c1=O` tested on SARS-CoV-2 3CL protease (Severe acute respiratory syndrome coronavirus 2); state its pIC50.
Key: 5.00 to 6.00

---

- subject_of_test: UniProtKB P0DTD1
- run_description: biochemical
- test_settings: IC50
pIC50: −log10 of the molar value.
Please respond with reported pIC50 for every item in the list.

Exercise: Read the entry `COc1ccc(Nc2nc(=O)n(Cc3cc(C(=O)O)c[nH]c3=O)c(=O)n2Cc2cc(F)c(F)c(F)c2)cc1` and write its reported pIC50.
Key: > 7.00

Exercise: Read the entry `Cn1cnc(Cn2c(=O)cc(Nc3cc4cn(C)nc4cc3Cl)n(Cc3ccc(F)c(C#N)c3)c2=O)n1` and write its reported pIC50.
Key: > 7.00

Exercise: Read the entry `Cn1cnc(Cn2c(=O)nc(Nc3cc4cn(C)nc4cc3Cl)n(Cc3cccc4cccnc34)c2=O)n1` and write its reported pIC50.
Key: 5.72

Exercise: Read the entry `COc1ccc(Nc2nc(=O)n(Cc3cc(C(=O)NCc4ccn(C)n4)c[nH]c3=O)c(=O)n2Cc2cc(F)c(F)c(F)c2)cc1` and write its reported pIC50.
Key: > 7.00
